- Test system: HT-29
- experimental.details: NCI tumour cell line growth inhibition, 48 h
Calls of active or inactive are those of the source. Rule as the data show it: active = GI50 up to about 1.1 µM and inactive = higher.
Classes used: active, inactive

| compound | discrete.label |
| --- | --- |
| O=C(/C=C(O)/C(=C/C(=O)c1ccccc1)NN=C(c1ccccc1)c1ccccc1)c1ccccc1 | inactive |
| CN(C1=NCCO1)c1cccc2ccccc12 | inactive |
| O=C1CSC2=NC3=C(CSC/C3=C\c3ccc(Cl)cc3)C(c3ccc(Cl)cc3)N12 (centres undefined) | inactive |
| O=C(CNc1ccc2c(=S)c3ccccc3[nH]c2c1)Nc1ccccc1-c1ccccc1NC(=O)CNc1ccc2c(=S)c3ccccc3[nH]c2c1 | inactive |
| O=C(Cc1nc2sc3c(c2c(=O)[nH]1)CCCC3)Nc1ccccc1 | inactive |
| Cc1cccc(C)c1NC(=O)Nc1ccc(S(N)(=O)=O)cc1 | inactive |
| Sc1cnnc2ccc(Br)cc12 | inactive |
| COC1OC(COCc2ccc(Cl)cc2)C(OCc2ccc(Cl)cc2)C1O (centres undefined) | inactive |
| CC(=O)OCC(=O)O[C@@H]1[C@H]2[C@@H](OC(=O)c3ccccc3)[C@@H](C)C[C@]2(O)[C@H](OC(C)=O)[C@@]2(C)C[C@]1(OC(C)=O)C[C@H]1C(=O)C(C)(C)[C@@H](OC(C)=O)[C@@H]12 | inactive |
| CCn1c(=N)sc2nc3ccccc3n2c1=O | inactive |
| CCC(Oc1ccc(OC)c2ccccc(=O)c12)C(=O)O (centres undefined) | inactive |
| COc1ccc(OCC(=O)O)c(C(=O)CCC(=O)O)c1 | inactive |
| O=C(O)c1cc(/C=C/c2ccc(O)c(O)c2)ccc1O | inactive |
| CCOC(=O)CC[C@@H](NC(=O)c1ccc(N[C@@H]2c3cc4c(cc3C(c3cc(OC)c(O)c(OC)c3)C3C(=O)OC[C@@H]32)OCO4)cc1)C(=O)OCC (some centres undefined) | active |

* * *

- Test system: RXF 393
- experimental.details: NCI tumour cell line growth inhibition, 48 h
Active and inactive are the calls of the source. No stated cut-off is given here; in the data, active = GI50 up to about 1.1 µM and inactive = higher.
Classes used: active, inactive

| molecule | experimental.system | discrete.label |
| --- | --- | --- |
| COC1OC(COCc2ccc(Cl)cc2)C(OCc2ccc(Cl)cc2)C1O (centres undefined) | RXF 393 | inactive |
| N=C(N)c1ccc(/N=N\c2c(O)ccc3c2[nH]c2ccccc23)cc1 | RXF 393 | inactive |
| CCOC(=O)C(NCc1cccc(C(F)(F)F)c1)(NC(=O)CC)C(F)(F)F (centres undefined) | RXF 393 | inactive |
| N/N=C(\C(=O)Nc1c(Cl)cc([N+](=O)[O-])cc1Cl)C(c1cnc2ccc([N+](=O)[O-])cc2n1)[N+](=O)[O-] (centres undefined) | RXF 393 | inactive |
| O=C(Cc1nc2sc3c(c2c(=O)[nH]1)CCCC3)Nc1ccccc1 | RXF 393 | inactive |
| Cc1ccc(NC(=O)/C(=N/NC(=O)CC#N)C2C(=O)N(c3ccccc3)N=C2N)cc1C (centres undefined) | RXF 393 | inactive |
| CN(C)C(=O)C(F)(F)C(c1ccc(Br)cc1)C1C(=O)N(C)C(=O)N(C)C1=O (centres undefined) | RXF 393 | inactive |
| CCN(CC)CCN1C(=O)CC2[C@@H]3CCc4cc(OC)ccc4C3CC[C@]2(C)C1=O (some centres undefined) | RXF 393 | inactive |
| CC(=O)N1NC(c2ccccc2)=NC(=O)C1c1cc(C)c(O)c(C)c1 (centres undefined) | RXF 393 | inactive |
| CC(=O)OCC1OC(Oc2cc(C)c(O)cc2C/C=C(\C)CC/C=C(\C)CC(=O)CC(C)C)C(O)C(OC(C)=O)C1OC(C)=O (centres undefined) | RXF 393 | inactive |
| O=C(NC(=O)c1ccccc1[N+](=O)[O-])Nc1ccc(Oc2ncc(Cl)cn2)c(C(F)(F)F)c1 | RXF 393 | active |
| Cc1nc2sccn2c1C(=O)NNC(N)=S | RXF 393 | inactive |
| CSCCC(NC(=O)OC(C)(C)C)C(=O)NCCNc1ccc(NCCNC(=O)C(CCSC)NC(=O)OC(C)(C)C)c2c1C(=O)c1ccccc1C2=O (centres undefined) | RXF 393 | inactive |
| O=C(O)c1cc(/C=C/c2ccc(O)c(O)c2)ccc1O | RXF 393 | inactive |
| CC(C)(C)c1cc(C(O)(C(=O)O)C(=O)O)cc(C(C)(C)C)c1O | RXF 393 | inactive |
| C=CCCCn1ccc2ccccc21 | RXF 393 | inactive |
| CC1(C)C/N=C/C(C)(OCc2ccccc2)C(=O)NC(C)(C)C/N=C/C(C)(OCc2ccccc2)C(=O)N1 (centres undefined) | RXF 393 | inactive |
| COC(=O)c1ccccc1NC(=O)/C(=N\NC(C)(C)C)C(C#N)c1nc(-c2ccc([N+](=O)[O-])cc2)cs1 (centres undefined) | RXF 393 | inactive |
| CC(C)=CCOc1cc(NC(=S)c2ccoc2C)ccc1Cl | RXF 393 | inactive |
| CN1C(=O)CC(=O)N1/C(=C/c1ccccc1)c1ccccc1 | RXF 393 | inactive |
| Clc1ccccc1C1SCc2nc3ccccc3n21 (centres undefined) | RXF 393 | inactive |
| Cc1ccc2c(O)cc(-c3cccc4ccccc34)nc2n1 | RXF 393 | active |
| COC(=O)C(/C(=N/NC(N)=S)C(=O)Nc1ccccc1[N+](=O)[O-])c1cnc2ccccc2n1 (centres undefined) | RXF 393 | inactive |
| CCCCCCCCCCC(O)C1CCC(C(O)CCC(O)C2CCC(CCCCCCC[C@H](O)CC3=C[C@@H](C)OC3=O)O2)O1 (some centres undefined) | RXF 393 | inactive |
| N#CC(C(=O)/C(=N/N)C(C#N)c1ccc(Cl)cc1)c1ccc(Cl)cc1 (centres undefined) | RXF 393 | inactive |
| O=C(CNc1ccc2c(=S)c3ccccc3[nH]c2c1)Nc1ccccc1-c1ccccc1NC(=O)CNc1ccc2c(=S)c3ccccc3[nH]c2c1 | RXF 393 | inactive |
| O=c1[nH]nc(Cc2ccccc2)n1/N=C\c1ccccc1 | RXF 393 | inactive |
| CCOC(=O)Cc1csc(N/N=C2\C(=O)Nc3ccccc32)n1 | RXF 393 | inactive |
| Cc1cc(C)c2c(c1)Nc1ccccc1P2c1ccccc1 (centres undefined) | RXF 393 | inactive |
| Cc1ccnc2nc(N)ccc12 | RXF 393 | inactive |
| COc1c2c(cc3c(CCc4ccccc4)cc(=O)oc13)CCC(C)(C)O2 | RXF 393 | inactive |
| CCC(C)C(=O)O[C@H]1C(=O)O[C@@H]2C[C@H]3C(C)=CC(=O)[C@@H](O)[C@]3(C)[C@H]3[C@@H](O)[C@H](O)[C@@]4(C)OC[C@]32[C@@H]14 (some centres undefined) | RXF 393 | active |
| S=C1N(/N=C/c2c3ccccc3cc3ccccc23)C(=N\c2ccccc2)/C(=N/c2ccccc2)N1c1ccccc1 | RXF 393 | inactive |
| CN(C1=NCCO1)c1cccc2ccccc12 | RXF 393 | inactive |
| CCOC(=O)/C=C(\C(=O)OCC)n1ccc(=O)n(Cc2cnnn2COCCOC(C)=O)c1=O | RXF 393 | inactive |
| C=CCN(c1cc(OC)c2[nH]cc(C)c2c1[N+](=O)[O-])S(C)(=O)=O | RXF 393 | inactive |
| N=C(N)NS(=O)(=O)c1ccc(Nc2c3ccccc3nc3ccc(C(=O)Nc4ccc(S(N)(=O)=O)cc4)cc23)cc1 | RXF 393 | inactive |
| O=C(O)C(O)Cc1ccccn1 (centres undefined) | RXF 393 | inactive |
| O=C(O)c1ccc(C(=O)O)c2c(C(=O)O)ccc(C(=O)O)c12 | RXF 393 | inactive |
